Just for reference, PubChem BioAssay (NCI) is where these values come from.

test system: RXF 393 renal; test: NCI tumour cell line growth inhibition, 48 h; in the data active = GI50 below about 0.43 µM; inactive = the rest
Outcome codes: 1 = active, -1 = inactive

molecule=CCc1ccc(/C=C2/SC(=S)NC2=O)cc1 tested_on="RXF 393 renal" assigned_class=-1
molecule=CCOc1ccc(N2C(N)=NC(N)=NC2(C)C)cc1 tested_on="RXF 393 renal" assigned_class=-1
molecule=CCN(CC)c1ccc(/C=N\NC(=O)c2cccc(Nc3ccnc(C(F)(F)F)c3)c2)c(O)c1 tested_on="RXF 393 renal" assigned_class=1
molecule=C=C1C(=O)O[C@H]2[C@H](OC(C)=O)[C@@H](C)CCC/C(C)=C/CC[C@]3(CO3)[C@H](O)C[C@@H]12 tested_on="RXF 393 renal" assigned_class=-1
molecule="O.O=[Se](=O)(O)O.[NH-]C1CCCCC1[NH-].[Pt+2] (stereo not given)" tested_on="RXF 393 renal" assigned_class=-1
molecule=ClCc1ccc(Cn2cnc3ncnc(Cl)c32)cc1 tested_on="RXF 393 renal" assigned_class=-1
molecule=C[C@@H]1CC[C@H]2C(CN3CCN(CC4=C(C(F)(F)F)O[C@@H]5O[C@@]6(C)CC[C@H]7[C@H](C)CC[C@@H]4[C@@]57OO6)CC3)=C(C(F)(F)F)O[C@@H]3O[C@@]4(C)CC[C@@H]1[C@]32OO4 tested_on="RXF 393 renal" assigned_class=-1
molecule=COc1cc(C(=O)c2c(-c3ccccc3)oc3ccccc23)cc(OC)c1O tested_on="RXF 393 renal" assigned_class=-1
molecule=COc1cc(C=NCC(=O)CSC(c2ccccc2)c2ccccc2)cc(OC)c1OC tested_on="RXF 393 renal" assigned_class=-1
molecule=CN1C=CN(Cc2ccc(-c3ccccn3)nc2)[CH-]1.CN1C=CN(Cc2ccc(-c3ccccn3)nc2)[CH-]1.[Au+3] tested_on="RXF 393 renal" assigned_class=-1
